pIC50 values, listed per item
# ASSAY_SYSTEM: Nonstructural protein 3 (Zika virus, UniProt A0A024AXB9)
# Sequence (A0A024AXB9 whole entry): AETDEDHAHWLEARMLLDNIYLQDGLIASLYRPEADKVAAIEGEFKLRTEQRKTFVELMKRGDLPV
# TEST_DESCRIPTION: Functional biochemical assay to identify treatments for viral infectious disease that targets Zika NS2B-NS3 protease. Utilizing a direct enzyme activity measurement method, reading the fluorescence intensity is used to characterize the relative potency of inhibitors as IC50.
# Set-up: species or system PRVABC59
pIC50 is defined as minus the log10 of a concentration measured in mol/L.

Field: example entries. Status: answers known.
- RECORD_SMILES: "O=C(Nc1ccc2c(c1)CNC2)c1cccc2sccc12"
  pIC50: 6.34
- RECORD_SMILES: "NCc1cccc(NC(=O)[C@@H](NC(=O)OCc2ccccc2)c2ccc(OCC3CCOCC3)cc2)c1"
  pIC50: 4.02
- RECORD_SMILES: "NCc1cccc(NC(=O)[C@@H](NC(=O)OCc2ccccc2)c2ccc(C3=CCCOC3)cc2)c1"
  pIC50: 4.16

Proceeding to the next compound to report its pIC50.
So for O=C(Nc1ccc2c(c1)CNC2)c1cc(Cl)cc2nn[nH]c12 , the logged pIC50 turned out to be 5.02

----------
# ASSAY_SYSTEM: Nonstructural protein 3 (Zika virus, UniProt A0A024AXB9)
# TEST_DESCRIPTION: Functional biochemical assay to identify treatments for viral infectious disease that targets Zika NS2B-NS3 protease. Utilizing a direct enzyme activity measurement method, reading the fluorescence intensity is used to characterize the relative potency of inhibitors as IC50.
# Set-up: species or system PRVABC59
The following compounds are listed with their measured IC50 values.
Answer format: numeric, µM implied, no suffix.

Examples with answers:
- RECORD_SMILES: "c1ccc2c(CN3CCC(c4c[nH]c5ncccc45)CC3)c[nH]c2c1"
  IC50 [µM]: 33.9
- RECORD_SMILES: "O=C(Nc1ccc2c(c1)CNC2)c1cccc2[nH]ncc12"
  IC50 [µM]: 0.129

Quick note, IC50 for O=C(Nc1ccc2c(c1)CNC2)c1cncc(N2CCOCC2)c1 landed at 66.3

Reported IC50 ( CO[C@]1(C)C(=O)Nc2cc(F)cc(C(=O)Nc3ccc4c(c3)CNC4)c21 ) = 1.19

Data point: CNC(=O)C[C@H]1NCc2cc(NC(=O)c3cc(Cl)cc4[nH]ncc34)ccc21 ; IC50 = 0.187

For O=Cc1ccc(N2CCC(C(=O)Nc3ncc(Br)cc3O)CC2)cc1 the compound record lists IC50 as 54

Looking up Clc1cc([C@H](C#Cc2ccccc2)Nc2ccc3c(c2)CNC3)c2cn[nH]c2c1 , I found its IC50 recorded as 1.03

Notebook: Cn1cnc2nc(Cl)cc(C(=O)Nc3ccc4c(c3)CNC4)c21 , IC50 read as 16.2

IC50 reported for this compound N#C[C@H](Nc1ccc2c(c1)CNC2)c1n[nH]c2cc(C(F)(F)F)ccc12 : 10.3

----------
# ASSAY_SYSTEM: Nonstructural protein 3 (Zika virus, UniProt A0A024AXB9)
# TEST_DESCRIPTION: Functional biochemical assay to identify treatments for viral infectious disease that targets Zika NS2B-NS3 protease. Utilizing a direct enzyme activity measurement method, reading the fluorescence intensity is used to characterize the relative potency of inhibitors as IC50.
# Parameters: species or system PRVABC59
METRIC_NAME: pIC50
FYI, pIC50 means -log10 of a concentration in mol per litre.

- RECORD_SMILES: "NS(=O)(=O)c1cc(Cl)cc(C(=O)Nc2ccc3c(c2)CNC3)c1"
  RESULT_NUMBER: 5.97
- RECORD_SMILES: "CC(C)(C)c1cc(Br)cc(C(=O)Nc2ccc3c(c2)CNC3)c1"
  RESULT_NUMBER: 6.45
- RECORD_SMILES: "c1cncc(C2CCN(Cc3c[nH]c4ccccc34)CC2)c1"
  RESULT_NUMBER: 4.49

Data point: Nc1noc2cccc(C(=O)Nc3ccc4c(c3)CNC4)c12 ; pIC50 = 6.01

In plain terms, CC(C)Oc1ccc(Cl)cc1[C@H](Nc1ccc2c(c1)CNC2)C(=O)NCC(F)F has a documented pIC50 of 6.97
